measurementTarget: Myelin-associated glycoprotein (Homo sapiens)
Sequence (whole entry): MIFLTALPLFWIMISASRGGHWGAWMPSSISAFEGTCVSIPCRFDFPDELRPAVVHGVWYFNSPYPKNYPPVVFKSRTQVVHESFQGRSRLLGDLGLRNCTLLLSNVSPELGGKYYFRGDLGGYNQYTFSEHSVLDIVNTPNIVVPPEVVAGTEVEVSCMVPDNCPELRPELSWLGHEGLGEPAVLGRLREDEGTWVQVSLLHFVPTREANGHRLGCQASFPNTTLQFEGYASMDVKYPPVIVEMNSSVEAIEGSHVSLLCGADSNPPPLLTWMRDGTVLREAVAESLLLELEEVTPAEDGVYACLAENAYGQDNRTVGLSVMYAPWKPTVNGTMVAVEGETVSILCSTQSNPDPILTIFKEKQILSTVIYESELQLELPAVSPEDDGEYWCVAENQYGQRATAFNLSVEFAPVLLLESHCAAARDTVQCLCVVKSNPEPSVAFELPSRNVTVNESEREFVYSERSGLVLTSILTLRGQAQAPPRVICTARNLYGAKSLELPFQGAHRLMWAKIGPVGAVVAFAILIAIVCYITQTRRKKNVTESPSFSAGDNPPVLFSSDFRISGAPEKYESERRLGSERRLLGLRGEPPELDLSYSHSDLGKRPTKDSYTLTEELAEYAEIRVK
test: Inhibition of human IgG Fc-domain tagged MAG N-terminal domain expressed in CHO cells assessed as relative inhibition potency by hapten inhibition assay relative to (2R,4S,5R,6R)-5-acetamido-2-(((2R,3R,4R,5R,6R)-5-acetamido-4-((2R,3R,4S,5S,6R)-4-((2S,4S,5R)-5-acetamido-2-carboxy-4-hydroxy-6-((1S,2S)-1,2,3-trihydroxypropyl)tetrahydro-2H-pyran-2-yloxy)-3,5-dihydroxy-6-(hydroxymethyl)tetrahydro-2H-pyran-2-yloxy)-3-hydroxy-6-(2-(trimethylsilyl)ethoxy)tetrahydro-2H-pyran-2-yl)methoxy)-4-hydroxy-6-((1S,2R)-1,2,3-trihydroxypropyl)tetrahydro-2H-pyran-2-carboxylic acid
Type: cell-based
Please respond with reported Ratio IC50 for every item in the list.
Give bare numbers.

For orientation, consider the following solved cases.
CC(=O)N[C@H]1[C@H]([C@@H](O)[C@H](O)CO)O[C@@](O[C@H]2[C@@H](O)[C@@H](CO)O[C@@H](O[C@@H]3CCO[C@H](COCc4ccc(-c5ccccc5)cc4)[C@@H]3O)[C@@H]2O)(C(=O)O)C[C@@H]1O	1.25
CC(=O)N[C@H]1[C@H]([C@@H](O)[C@H](O)CO)O[C@@](O[C@H]2[C@@H](O)[C@@H](CO)O[C@@H](O[C@@H]3CCO[C@H](CO)[C@@H]3O)[C@@H]2O)(C(=O)O)C[C@@H]1O	0.76
CC(=O)N[C@H]1[C@H]([C@@H](O)[C@H](O)CO)O[C@@](O[C@H]2[C@@H](O)[C@@H](CO)O[C@@H](O[C@@H]3CCO[C@H](CO[C@@H](C)C(=O)O)[C@@H]3O)[C@@H]2O)(C(=O)O)C[C@@H]1O	1.24

Please look at the following molecule next.
**Q:** Fill in the blank: the reported Ratio IC50 of `CC(=O)N[C@H]1[C@H]([C@@H](O)[C@H](O)CNC(=O)c2ccc(Cl)cc2)O[C@@](O[C@H]2[C@@H](O)[C@@H](CO)O[C@@H](O[C@@H]3CCO[C@H](COCc4ccc(-c5ccccc5)cc4)[C@@H]3O)[C@@H]2O)(C(=O)O)C[C@@H]1O` is ____.
**A:** 377
